Task for the reader: assign each of the following binders its reported Kd.
Molecular target: Cdc42:CRIB-PDZ^130–255 complex (Cdc42 loaded with GMPPNP) ( | D. melanogaster, UniProt P60953 1-191; O97111 130-255)
Test: fluorescence polarisation
Where no end group is shown, it is not given here. The star is where a group is joined. RhodamineB = CCN(CC)c1ccc2c(-c3ccccc3C(=O)*)c3ccc(=[N+](CC)CC)cc-3oc2c1
Answers are plain numbers, in µM.

| Binder | Unit Annotation | Kd |
| --- | --- | --- |
| RhodamineB-VKESLV [N-terminally Rhodamine B-labeled VKESLV peptide] | µM | 6 |

Now look at this entry.
Problem: Which measured Kd value corresponds to RhodamineB-GEERLI [N-terminally Rhodamine B-labeled GEERLI peptide] ?
Solution: 1.2
